- test name: Toxicity liver stage against HepG2, at 10uM
- Format: cell-based
- Design: test concentration 10 uM, cell line HepG2-A16-CD81EGFP
- condition parameters: human, HepG2-A16-CD81EGFP cells; read-out: INHIBITION
I'd be grateful if you could share measured cytotoxicity at 10 µM for these entries.
Answers are plain numbers, in %.

O=C(CN1CCN(c2ncnc3cccc(F)c23)CC1)N1CCCC1    3.65
Cc1nc(CN2CCN(CCOc3ccc(C(C)C)c(C)c3)CC2)no1    -11.2
CCCc1n[nH]c(C2CN(CCNC3CCCCC3)CCO2)n1 (stereo not given)    2.75
Cc1nc2ccccc2nc1CN1CCOC(Cn2cccn2)C1 (stereo not given)    1.1
CN1CCC[C@H]1c1nc(-c2cncnc2N)no1    2.6
CNc1cc2c(nn1)CCN(C(=O)c1cc(F)cc(F)c1)C2    -5.97
O=C(NCCNc1cnccn1)N1CCCCCC1    -3.33
CC(C)c1nnc2n1CCN(Cc1cc(Cl)c3c(c1)OCCO3)C2    0.549

// input: 2 compounds below; output: cytotoxicity at 10 µM for each
1. Cc1ccc(C(C(=O)N2CCN(C(=O)c3ccc[nH]3)CC2)N(C)C)cc1 (stereo not given)
2. Cc1cccnc1NCCNC(=O)C1CCN(C(=O)N(C)C)CC1

Ans.
[-10.7, 1.99]
